Consider the following compounds; for each one, report its GI50.
tested on: EKVX; assay: NCI tumour cell line growth inhibition, 48 h
Activity calls are given as the source filed them. Rule as the data show it: active = GI50 up to about 1.1 µM and inactive = higher. Where a SMILES comes first, the peptide text is derived from it. The star is where a group is joined. Cbz = O=C(OCc1ccccc1)*

{"Compound": "COc1cc2c(cc1O)[C@H](C)C(c1ccc(OC)c(OC)c1)O2 (some centres not stated)", "GI50": "17.5 µM (inactive)"}

List the reported GI50 of each compound below.
1. CC1=NOC2(C1)C(=O)Nc1ccccc12 (configuration not stated)
2. CCOC(=O)CCC(NC(=O)CNC(=O)CNC(=O)C(CCC(=O)OCC)NC(=O)C(CCC(=O)OCC)NC(=O)C(CCC(=O)OCC)NC(=O)OCc1ccccc1)C(=O)NC(CCC(=O)OCC)C(=O)NC(CCC(=O)OCC)C(=O)OCC (configuration not stated) (Cbz-E(OEt)E(OEt)E(OEt)GGE(OEt)E(OEt)E(OEt)-OEt; configuration not given here)
3. COc1cccc(N2C(=O)C3C4C=C5c6ccccc6N(c6ccccc6)C5(C3C2=O)[C@H]2C(=O)N(c3cccc(OC)c3)C(=O)[C@@H]42)c1 (some centres not stated)

> 100 µM (inactive)
> 75 µM (inactive)
> 100 µM (inactive)

Provide GI50 for all items below, preserving their order.
1. COC1CC(Br)(C#N)C1 (configuration not stated)
2. CC(=O)c1c(C(F)(F)F)[n+]([O-])c2cc(Cl)c(Cl)cc2[n+]1[O-]
3. CC1(Br)C(=O)NC(=O)N([C@H]2C[C@H](O)[C@@H](CO)O2)C1N=[N+]=[N-] (some centres not stated)

> 100 µM (inactive)
1.29 µM (inactive)
> 100 µM (inactive)

Here are 5 compounds. What values of GI50 were reported for them?
1. C[N+](C)(C)CC(=O)N/N=C/c1oc(-c2c(O)ccc3ccccc23)c(-c2c(O)ccc3ccccc23)c1[N+](=O)[O-]
2. Nc1nc2c(-c3ccc([N+](=O)[O-])cc3)nnn2c2ccccc12
3. Cc1cc2c(cc1C)[n+]([O-])c(C(=O)/C=C/c1ccccc1[N+](=O)[O-])c(C)[n+]2[O-]
4. CC[C@]1(Cc2ccc(OC)c(OC)c2)C=[N+]([O-])O[C@H](OC2CCCC2(c2ccccc2)c2ccccc2)[C@@H]1OC(C)=O (some centres not stated)
5. CCOC(=O)C1(C/C=C/CBr)CCc2ccccc2C1=O (configuration not stated)

1: 21.9 µM (inactive); 2: > 100 µM (inactive); 3: 58.2 µM (inactive); 4: 5.89 µM (inactive); 5: 27.5 µM (inactive)

Would you be so kind as to report GI50 for each listed record?
1. CCCCC(=C=C1CCCCC1O)C1CCCN1C(=O)OC(C)(C)C (configuration not stated)
2. Nc1ncnc2nc(N3CCN(CCO)CC3)[nH]c12
3. [N-]=[N+]=Nc1ccc(NCCCCCC(=O)ON2C(=O)CCC2=O)c([N+](=O)[O-])c1
4. O=C1C(/C=N/CCc2c[nH]c3ccccc23)C(C(F)(F)F)=NN1c1nc2ccccc2s1 (configuration not stated)

14.9 µM (inactive)
> 100 µM (inactive)
98.9 µM (inactive)
23.1 µM (inactive)

Returns the measured GI50 for the input compound. Input: Cc1cccc(NC(=O)/C(=N\NC(C)(C)C)C2NC(=S)NC2=O)c1C (configuration not stated)
59.6 µM (inactive)
